Tested on: Tamiflu-resistant 2009 pandemic influenza A (H1N1) virus (H275Y mutation in neuraminidase)
Assay: in vitro
Settings: dog, SI (selective index = CC50/EC50), H1N1 Tamiflu-resistant
Form field: selectivity ratio (one value per entry).

Examples from the recorded data:
- COc1c(O)cc2oc(-c3cccc(Br)c3)cc(=O)c2c1O: > 66.7
- COc1cc2oc(-c3ccccc3Br)cc(=O)c2c(OC)c1OC: 8
- COc1cc2oc(-c3cccc(Br)c3)cc(=O)c2c(O)c1OC: > 15.8
- O=c1cc(-c2ccccc2)oc2cc(O)c(O)c(O)c12 [Baicalein, reference compound]: > 6.5
- COc1c(O)cc2oc(-c3ccccc3Br)cc(=O)c2c1O: > 34.9
- COc1cc2oc(-c3ccccc3Br)cc(=O)c2c(O)c1OC: 8.3
- COc1c(O)cc2oc(-c3ccc(Br)cc3)cc(=O)c2c1O: > 66.7
- O=c1cc(-c2ccc(Br)cc2)oc2cc(O)c(O)c(O)c12: > 66.7

Kindly review the next molecule as well.
QUERY: Param item = `COc1cc2oc(-c3ccc(Br)cc3)cc(=O)c2c(O)c1OC` ; retrieve measured selectivity ratio.
RESULT: > 66.7
